propertyName: melting point

// solved cases for melting point follow
INSERT INTO measurements (smilesstr, propertyname, result) VALUES
  ('COC[C@@H]1CN(C/C=C\CN2CCN(C(=O)c3cc(C(F)(F)F)cc(C(F)(F)F)c3)[C@H](Cc3ccc(C)c(O)c3)C2)CCO1.Cl.Cl', 'melting point', '180 to 200 °C'),
  ('Cl.Cl.O=C(c1cc(C(F)(F)F)cc(C(F)(F)F)c1)N1CCN(CCN2CCC(F)(F)CC2)C[C@H]1Cc1ccc(Cl)c(O)c1', 'melting point', '166 to 170 °C'),
  ('Cl.Cl.O=C(c1cc(C(F)(F)F)cc(C(F)(F)F)c1)N1CCN(Cc2cccnc2)C[C@H]1Cc1ccc(F)c(O)c1', 'melting point', '50 to 60 °C');

Okay, next one:
Recorded melting point of Cl.Cl.Cl.O=C(c1cc(C(F)(F)F)cc(C(F)(F)F)c1)N1CCN(CCN2CCc3ncccc3C2)C[C@H]1Cc1ccc(Cl)c(O)c1 , please.
237 to 243 °C (dec.)

====

Below, each entry is listed with its recorded melting point.

INSERT INTO measurements (smilesstr, result) VALUES
  ('Cl.Cl.Cl.O=C(c1cc(-n2cccc2)cc(C(F)(F)F)c1)N1CCN(CCN2CCc3ncccc3C2)C[C@H]1Cc1ccc(Cl)cc1', '184 to 191 °C'),
  ('COc1cc(C[C@@H]2CN(CCN3CC4CCC(C3)O4)CCN2C(=O)c2cc(C(F)(F)F)cc(C(F)(F)F)c2)ccc1F.Cl.Cl', '163 to 178 °C');

Consider the molecule shown here: Cl.Cl.O=C(c1cc(C(F)(F)F)cc(C(F)(F)F)c1)N1CCN(CCCc2cccnc2)C[C@H]1Cc1ccc(F)cc1 What is its recorded melting point?
110.2 to 117.5 °C

melting point lookup needed for COC[C@@H]1CN(CCN2CCN(C(=O)c3cc(-n4cccc4)cc(C(F)(F)F)c3)[C@H](Cc3ccc(C)c(O)c3)C2)CCO1.Cl.Cl , thanks.
159 to 170 °C

====

# key: entry, value: melting point

# count of solved cases: 5
INSERT INTO assay_data (compound, result) VALUES
  ('Cc1ccc(C[C@@H]2CN(CCc3cccnc3)CCN2C(=O)c2cc(C(F)(F)F)cc(C(F)(F)F)c2)cc1O.Cl.Cl', '90 to 120 °C'),
  ('COc1cc(C[C@@H]2CN(CCN3C[C@@H](C)O[C@@H](C)C3)CCN2C(=O)c2cc(SC)cc(C(F)(F)F)c2)ccc1F.Cl.Cl', '62.5 to 82.4 °C'),
  ('COc1cc(C[C@@H]2CN(CCN3CCC[C@H]3CO)CCN2C(=O)c2cc(C(F)(F)F)cc(C(F)(F)F)c2)ccc1F.Cl.Cl', '198 to 201 °C'),
  ('COc1cc(C(=O)N2CCN(CCCc3cccnc3)C[C@H]2Cc2ccc(Cl)cc2)cc(C(F)(F)F)c1.Cl.Cl', '60 to 100 °C'),
  ('Cc1ccc(C[C@@H]2CN(Cc3nsc(N)n3)CCN2C(=O)c2cc(C(F)(F)F)cc(C(F)(F)F)c2)cc1O.Cl.Cl', '177 to 182 °C');

Would you kindly share the measured melting point for CC1(C)COCCN1CC#CCN1CCN(C(=O)c2cc(C(F)(F)F)cc(C(F)(F)F)c2)[C@H](Cc2ccc(F)c(O)c2)C1.Cl.Cl ?
180 to 184 °C

Bench note: what melting point did Cl.Cl.Cl.O=C(c1cc([N+](=O)[O-])cc(C(F)(F)F)c1)N1CCN(CCN2CCc3ncccc3C2)C[C@H]1Cc1ccc(Cl)cc1 show?
221 to 228 °C

// melting point lookup, key: COc1cc(C(=O)N2CCN(CCN3C[C@@H](C)O[C@@H](C)C3)C[C@H]2Cc2ccc(F)cc2)cc(C(F)(F)F)c1.Cl.Cl
70.3 to 85.2 °C

Quick one: melting point for COC[C@@H]1C[C@@H](OC)CN1CCN1CCN(C(=O)c2cc(C(F)(F)F)cc(C(F)(F)F)c2)[C@H](Cc2ccc(Cl)c(O)c2)C1.Cl.Cl ?
95 to 105 °C

Item Cc1ccc(C[C@@H]2CN(Cc3nc(N)no3)CCN2C(=O)c2cc(C(F)(F)F)cc(C(F)(F)F)c2)cc1O.Cl.Cl has what recorded melting point?
160 to 170 °C

I would be grateful if you could share the reported melting point for C[C@@H]1CN(CCN2CCN(C(=O)c3cc(C(F)(F)F)cc(C(F)(F)F)c3)[C@H](Cc3ccc(F)c(O)c3)C2)C[C@H](C)O1.Cl.Cl .
170 to 195 °C

Which melting point is listed for CN(C)S(=O)(=O)c1cc(C(=O)N2CCN(CCN3CCc4ncccc4C3)C[C@H]2Cc2ccc(Cl)cc2)cc(C(F)(F)F)c1.Cl.Cl.Cl ?
209 to 226 °C

Report melting point for C[C@@H]1CN(CCN2CCN(C(=O)c3cc(C(F)(F)F)cc(C(F)(F)F)c3)[C@H](Cc3ccc(C(F)(F)F)cc3)C2)C[C@H](C)O1.Cl.Cl please.
148 to 159 °C

Reported melting point for COc1cc(C(=O)N2CCN(CC#CCN3CCOCC3(C)C)C[C@H]2Cc2ccc(C)c(O)c2)cc(C(F)(F)F)c1.Cl.Cl : what is it?
181 to 188 °C
